- Procedure Summary: Caco-2 Permeability Assay (bidirectional)
- Assay type: in vitro ADME
- Measurement Context: human, Caco-2; Direction B→A; 1 μM, 120 minutes, pH 7.4; unit not given (thresholds in 10^−6 cm/s)
Readout Kind: Papp B→A at 120 min, 1 μM (×10⁻⁶ cm/s)

1. O=C(Cc1cccc(OC(F)(F)F)c1)Nc1ccc(CCCCc2nnc(NC(=O)Cc3cccc(F)c3)s2)nn1 [Compound 679] = 19.6
2. O=C(Cc1ccccc1)Nc1ccc(CCCCc2nnc(NC(=O)Cc3ccccc3)s2)nn1 [Compound 295] = 59.8
3. O=C(Cc1cccc(OC(F)(F)F)c1)Nc1ccc(CCCCc2nnc(NC(=O)[C@@H](O)c3ccccc3)s2)nn1 [Compound 703] = 41
4. O=C(Cc1ccccc1Cl)Nc1ccc(CCCCc2nnc(NC(=O)Cc3ccccc3F)s2)nn1 [Compound 533] = 37.5

P = O=C(Cc1cccc(OC(F)(F)F)c1)Nc1ccc(CCCCc2nnc(NC(=O)Cc3ccccc3)s2)nn1 [Compound 585]
Q = O=C(Cc1ccccc1)Nc1ccc(CCCCc2nnc(NC(=O)C(O)c3cccc(Cl)c3)s2)nn1 (stereo not shown) [Compound 318]
stdin: Field: lower recorded Papp B→A at 120 min, 1 μM (choose P or Q ) Lab note: record the label of whichever item you select.
stdout: P

Data provenance is patent US8604016B2.
